ATTRIBUTE_MEASURED: melting point

Request the reported melting point associated with `Cc1ccc(Br)c(C)c1C(O)=S`
98 to 103 °C

Request the reported melting point associated with `CN(C)CCC(=O)Nc1cccc(NC(=O)Nc2ccc(N(CCCl)CCCl)cc2)c1`
88 to 90 °C

Request the reported melting point associated with `CCSC1=NCC(=O)N1c1ccccc1`
79 to 81 °C

Request the reported melting point associated with `COC(=O)CN(C)CC(=O)Nc1cccc2c1C(=O)c1c(NC(=O)CN(C)CC(=O)OC)cccc1C2=O`
129 to 130 °C

Request the reported melting point associated with CONC(=O)Nc1ccc(-c2sc3c(c2CN(C)C(C)(C(=O)O)c2ccccc2)c(=O)n(-c2ccccc2)c(=O)n3Cc2c(F)cccc2F)cc1 (centres undefined)
147 to 149 °C

Request the reported melting point associated with CC(Cn1cc(Cl)c2ccccc21)N(O)C(N)=O (centres undefined)
168 to 171 °C

Request the reported melting point associated with `CCOC(=O)C(C)(C)NC(=O)c1cccc(C2=NC(C)(C)Cc3cc(OC)c4c(c32)CC(C)(C)O4)c1`
114 to 115 °C

Request the reported melting point associated with `CN(C)CCCCCCc1nn(CC(N)=O)c(-c2ccccc2)c1-c1ccccc1`
60 to 63 °C

Request the reported melting point associated with `COC(=O)c1ccccc1-c1ccc(COc2cc(C)nc3cccnc23)cc1`
132 to 134 °C

Request the reported melting point associated with `Nc1ncc(-c2cnc3[nH]c(=O)n(CC4CCCCC4)c3n2)cn1`
> 250 °C

Request the reported melting point associated with `COCCS(=O)(=O)c1ccc(CCN2CC=C(c3c[nH]c(-c4ccc(F)c(Cl)c4)c3-c3ccncc3)CC2)cc1`
208 to 210 °C

Request the reported melting point associated with `Cc1cc(-c2cc(C(F)(F)F)n3ncc(I)c3n2)ccc1C(F)(F)F`
160 °C

Request the reported melting point associated with OCCOCC(O)c1cccc2ccccc12 (centres undefined)
91 to 92 °C

Request the reported melting point associated with COC(=O)[C@@H]1C(=O)CC[C@H]1C(=O)OC (relative stereo)
49 to 50 °C

Request the reported melting point associated with `CCCCCCCCCCCCCCc1cccc(O)c1`
38 to 40 °C

Request the reported melting point associated with CCc1ccc2oc(C(=O)Nc3ccc(-c4ccc(S(=O)(=O)NC(C(=O)OC)C(C)C)cc4)cc3)c(C)c2c1OC(C)C (centres undefined)
182 to 184 °C

Request the reported melting point associated with `CC(C)(C)c1ccc(Oc2nc(Nc3cccc(CO)c3)nc(Oc3ccccc3)n2)cc1`
47 to 50 °C

Request the reported melting point associated with COc1cccc2[nH]c3c(c12)CC(N(C)C)CC3 (centres undefined)
185 to 189 °C

Request the reported melting point associated with `O=c1ccc(S(=O)(=O)n2cccc2)n[nH]1`
140 to 145 °C

----------
Provide the recorded melting point for the entries that follow.

Request the reported melting point associated with CC(CCNC1=Nc2ccc(Br)c3cccc1c23)n1ccnc1 (stereo not given)
240 to 241 °C

Request the reported melting point associated with `N#Cc1c2c(n(Cc3ccccc3)c1N)CCCC2`
128 to 130 °C

Request the reported melting point associated with CCOC(=O)C1=Cc2cc(Cl)ccc2NC1C(F)(F)F (stereo not given)
133 to 134 °C

Request the reported melting point associated with CC(=O)c1ccc(C2c3cc(NC(=O)CC(C)(C)C)c(C)c(C)c3OC2(C)C)cc1 (stereo not given)
195 to 196 °C

Request the reported melting point associated with `CON(Cc1cccc(-c2ccc(Cl)cc2)c1)C(=O)c1cn(C)nc1C(F)F`
78 to 80 °C

Request the reported melting point associated with CC#CCOc1ccc(S(=O)(=O)N(C)C(CCCSc2ccc(Cl)cc2)(NC)C(=O)O)cc1 (stereo not given)
143 to 145 °C

Request the reported melting point associated with `CCc1ccc(S(=O)(=O)c2c(N)c3nncn3c3nc4ccccc4nc23)cc1`
> 300 °C

Request the reported melting point associated with NC(=O)CCC(O)c1ccccc1 (stereo not given)
74 to 75 °C

Request the reported melting point associated with `Cc1c(NC(=O)CCCC(=O)c2ccc(F)cc2)ccc2cc(CN3CCCC3)cnc12`
170 to 171 °C

Request the reported melting point associated with `O=Cc1ccc2cc(C=O)ccc2c1`
173 to 174 °C

----------
Provide the recorded melting point for the entries that follow.

Request the reported melting point associated with `COc1ccc2c(C(=O)O)cccc2c1`
180 °C

Request the reported melting point associated with CC1(C)CC(O)(C(F)(F)F)C(Nc2cccc3[nH]c(=O)ccc23)c2cc(O)c(Cl)cc21 (centres undefined)
158 °C

Request the reported melting point associated with `CC(C)(C)c1cc(C(=O)NNC(=O)c2occ(-c3ccccc3)c2-c2ccccc2)ccc1O`
244 to 247 °C

Request the reported melting point associated with `FC(F)(F)c1nc(-c2ccccc2)c(-c2ccccc2)c(N2CCN(c3ccccn3)CC2)n1`
165 to 167 °C

Request the reported melting point associated with `N#Cc1cccc(-c2c(C(N)=O)c3n(c2Cl)CCNC3)c1`
151 to 153 °C

Request the reported melting point associated with `O=C(NCC(=O)c1cccs1)c1ccc(F)cc1`
147 to 148 °C

Request the reported melting point associated with `COc1ccc(Cl)cc1N1CCN(CCCNC(=O)c2cccc3c(=O)c(C)c(C(=O)N(C)C)oc23)CC1`
151 to 153 °C

Request the reported melting point associated with `CNC(=O)CN(CCN(CCN(CC(=O)O)CC(=O)NC)CC(=O)O)CC(=O)O`
78 to 82 °C

Request the reported melting point associated with `Cc1cc(Cc2ccccc2)c(NC(=O)OCc2ccccc2)c(=O)n1CC(=O)O`
158 to 160 °C

----------
ATTRIBUTE_MEASURED: melting point

Request the reported melting point associated with COC(=O)C(C)Oc1ncn(-c2ccc(Cl)cc2Cl)n1 (stereo not given)
74 to 75 °C

Request the reported melting point associated with `Cn1cc(C(=O)NCc2ccc(Br)cc2)c(=O)c2cc(CN3CCOCC3)sc21`
245 to 246 °C

Request the reported melting point associated with `O=C1COc2ccc(C3=Cc4cc(F)ccc4SC3)cc2N1`
229 to 234 °C

Request the reported melting point associated with Cn1c(COc2ccc(CC3SC(=O)NC3=O)cc2)nc2ccc(OCCc3ccc(N)cc3)cc21 (stereo not given)
184 to 188 °C

Request the reported melting point associated with `COc1nc(N)nc(OC)c1C1=NCCN1`
230 °C

Request the reported melting point associated with `Cn1ccc(Nc2n[nH]c3ccc(-c4ncccc4Cl)cc23)n1`
190 to 191 °C

Request the reported melting point associated with `CCOC(=O)C1(C(=O)O)Cc2cc(OC)c(OC)cc2C1`
146 to 148 °C

Request the reported melting point associated with `CC1CCN(Cc2cccc(OCCCNc3nc(N)nn3C)c2)CC1`
133 to 134 °C

Request the reported melting point associated with `O=c1[nH]c2ccc([N+](=O)[O-])cc2c(=O)n1CCCN1CC=C(c2ccc(Cl)cc2)CC1`
205 to 207 °C

Request the reported melting point associated with CCS(=O)C1(Cl)CC2CC(=O)N2C1C(=O)OCc1ccccc1 (stereo not given)
123 to 125 °C

----------
Provide the recorded melting point for the entries that follow.

Request the reported melting point associated with CC1(C)C2CCC1(C(=O)P(=O)(c1ccccc1)c1ccccc1)C(=O)C2=O (stereo unspecified)
92.1 °C

Request the reported melting point associated with `Cc1ccc([N+](=O)[O-])cc1Nc1ncc(-c2ccc(C#N)cc2)o1`
> 228 °C

Request the reported melting point associated with CC(=O)NCCC1CCc2ccc3nc(CO)oc3c21 (stereo unspecified)
132 to 134 °C

Request the reported melting point associated with COc1c(C)cnc(CS(=O)c2nc3ncccc3[nH]2)c1C (stereo unspecified)
169 to 170 °C

Request the reported melting point associated with Cc1ccc(F)c2c1NC(=O)C21COc2cc3c(cc21)CCO3 (stereo unspecified)
> 250 °C

Request the reported melting point associated with O=C(NC(Cc1ccccc1)C(=O)O)c1ccccc1O (stereo unspecified)
52 to 53 °C

Request the reported melting point associated with `N#CSc1cc(C(=O)O)cc([N+](=O)[O-])c1C(=O)c1ccccc1`
184 °C

Request the reported melting point associated with `C[C@H](NC(=O)Cc1cc(F)cc(F)c1)C(=O)N[C@@H]1C(=O)Nc2ccccc2S[C@@H]1c1cc(Br)cs1`
145 to 155 °C

Request the reported melting point associated with `Cc1c(C)c2ccc(OCCCCCc3ccccc3)cc2oc1=O`
101 °C

Request the reported melting point associated with `CCCCc1cccc(NC(=O)C=C(C)OC)c1`
36 °C

Request the reported melting point associated with `NC(=O)c1cc2n(n1)-c1ccc(Cl)cc1C(c1ccccc1)=NC2`
216 to 218 °C

Request the reported melting point associated with `CCOC(=O)c1cc(O)ccc1CCc1cc2cc(C#N)ccc2o1`
133 to 135 °C

Request the reported melting point associated with CC(C)(C)ONC(=O)n1cc(C(=O)C2CSC(c3cccnc3)N2)c2ccccc21 (stereo unspecified)
101 to 103 °C

Request the reported melting point associated with `Fc1ccc(C=C(c2ccccc2)C(F)(F)F)cc1`
35 to 41 °C

Request the reported melting point associated with `CCOC(=O)Nc1cn2nc(OCc3cc(OC)ccc3OC)ccc2n1`
210 to 211 °C

Request the reported melting point associated with `COc1cc(C(=O)Cl)ccc1OCCCCl`
60 to 63 °C

Request the reported melting point associated with `CCCc1c2nc(C(=O)OC)cc(NS(=O)(=O)c3ccc(C)cc3)c2cc2c(=O)cc(C(=O)OCC)oc12`
219 °C

Request the reported melting point associated with `OCCCCCCCCCCCOc1ccc(O)cc1`
99 to 100 °C

Request the reported melting point associated with O=C(Oc1ccc(Cl)cc1)n1c2c(c(=O)n(C3CCCCO3)c1=O)CCC2 (stereo unspecified)
126 °C

Request the reported melting point associated with `O=C(O)CCc1cnoc1-c1ccc(-c2ccccc2)cc1`
94 to 95 °C

Request the reported melting point associated with `COC(=O)Nc1nc(OC)cc(OC)n1`
81 to 83 °C
